System: microorganisms
Experiment Notes: Targeting peptide binding to target microorganisms (Tables 3, 10, 12)
Reported Conditions: microorganism(s) the targeting peptide binds; binding in aqueous buffers varied with peptide solubility, preferably 1x PBS
Quantity Kind: Target(s)

Reference set (4 entries):
1. PF-503 (VVTLKDIVAVIEDQGYDVQ; Peptide with targeting and/or antimicrobial activity) :: S. mutans
2. PF-489 (KVDRVSTTITEKIK; Peptide with targeting and/or antimicrobial activity) :: S. mutans
3. PF-231 (AVRDFKKSVREEDEAASLNSPRTIDAQVKTSESTSVKS; Peptide with targeting and/or antimicrobial activity) :: S. mutans
4. PF-421: peptide having multiple activities (chain 1 KHCFEITDKTDVV; chain 2 KHCFEITDKTDVV; Peptide with targeting and/or antimicrobial activity) :: C. jeikeium

Let us examine a further case.
Identify measured Target(s) corresponding to PF-613: peptide having multiple activities (chain 1 ADEFAKL; chain 2 ADEFAKL; Peptide with targeting and/or antimicrobial activity)
C. jeikeium
